List of pre-steady-state target cleavage rate values.
Test system: MILI (PIWIL2) piRISC loaded with L1MC piRNA (26 nt);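 note: 1 nM active piRISC with 0.1 nM target library at 33 °C single turnover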
RUN_DESCRIPTION: pre-steady-state target cleavage rate (min^-1); guide: L1MC piRNA 5'p-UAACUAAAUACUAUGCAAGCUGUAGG; MIWI and MILI are mouse PIWI proteins and EfPiwi is from a freshwater sponge; tags in brackets are library labels; higher = faster piRNA-guided slicing of the target
MEASUREMENT_PARAMETERS: auxiliary factor: 500 nM mouse GTSF1
Form rule: numeric answer, no unit written next to it.

# RECORD_SEQUENCE, pre-steady-state target cleavage rate
measured = [
    ("UCCUGGAACAGCUUGCAUAGGAUUUAGUUA", 0.00777),
    ("UCCUGGUACAGCUUGCAUAUAUUUAGUUA", 0.035),
    ("UCCUCCUACAGCUACGAUAGUAUUUACAAA", 0.0587),
]

# sequence UCCUCGUACAGCUUGCAUAGUAUUUUGUUA ; its pre-steady-state target cleavage rate = 0.143

So, UCCUGGAUCAGCUUGGAUACUAUUUAGUUA ? Its pre-steady-state target cleavage rate was 0.0383

// UCCUGCUACAGCUUGCAUAGAUAUUUAGUUA : pre-steady-state target cleavage rate value = 0.0121

sequence UCCUGGAUGAGCUAGCAUAGUAAUUAGUUA , pre-steady-state target cleavage rate observed: 0.131

get_value(item= UCCUGGAUGUCCUUGCAUUGUAUAUAGUUA , readout=pre-steady-state target cleavage rate) returns 0.0803

Value source: the supplement of paper PMC10338343
